System: HT-29
procedure_summary: Antiproliferative activity against human HT-29 cells after 72 hrs by MTT assay
Format: functional, cell-based
measurement_conditions: Homo sapiens, HT-29, 72 h; read-out: IC50
Task for the reader: assign each of the following compounds its reported IC50.
Write the value in µM as a bare number.

Query: Data request, read-out IC50, for COc1ccc2c(c1)c(CC(=O)Nc1ccc(Cl)cc1)c(C)n2C(=O)c1ccc(Cl)cc1
Result: 68

Query: Data request, read-out IC50, for COc1ccc(/C=C2/C(C)=C(CC(=O)NCCN(C)C)c3cc(F)ccc32)cc1
Result: 20

Query: Data request, read-out IC50, for COc1cccc(NC(=O)Cc2c(C)n(C(=O)c3ccc(Cl)cc3)c3ccc(OC)cc23)c1
Result: 1190

Query: Data request, read-out IC50, for CCCCCCCCNC(=O)CC1=C(C)/C(=C/c2ccc([S+](C)[O-])cc2)c2ccc(F)cc21 (centres undefined)
Result: 307

====

Tested on: HT-29
procedure_summary: Antiproliferative activity against human HT-29 cells after 72 hrs by MTT assay
Assay type: functional, cell-based
measurement_conditions: Homo sapiens, HT-29, 72 h; read-out: IC50
Task for the reader: assign each of the following compounds its reported pIC50.
Please keep in mind that pIC50 is minus log10 of the molar concentration; only the number is needed.

Query: Data request, read-out pIC50, for CCCCCC(C)NC(=O)CC1=C(C)/C(=C/c2ccc([S+](C)[O-])cc2)c2ccc(F)cc21 (stereo not drawn)
Result: 2.67

Query: Data request, read-out pIC50, for COc1ccc2c(c1)c(CC(=O)NCCCCCNC(=O)Cc1c(C)n(C(=O)c3ccc(Cl)cc3)c3ccc(OC)cc13)c(C)n2C(=O)c1ccc(Cl)cc1
Result: 3.96

Query: Data request, read-out pIC50, for CC1=C(CC(=O)Nc2ccc(Cl)cc2)c2cc(F)ccc2/C1=C\c1ccc([S+](C)[O-])cc1 (stereo not drawn)
Result: 2.77

Query: Data request, read-out pIC50, for CCCCNC(=O)CC1=C(C)/C(=C/c2ccc([S+](C)[O-])cc2)c2ccc(F)cc21 (stereo not drawn)
Result: 3.91

Query: Data request, read-out pIC50, for COc1ccc2c(c1)c(CC(=O)NCCN1CCCC1)c(C)n2C(=O)c1cc(OC)c(OC)c(OC)c1
Result: 4.47

Query: Data request, read-out pIC50, for COc1ccc2c(c1)c(CC(=O)Nc1ccc(I)cc1)c(C)n2C(=O)c1ccc(Cl)cc1
Result: 4.28

Query: Data request, read-out pIC50, for CC1=C(CC(=O)Nc2ccc(C#N)cc2)c2cc(F)ccc2/C1=C\c1ccc([S+](C)[O-])cc1 (stereo not drawn)
Result: 2.59

Query: Data request, read-out pIC50, for CC1=C(CC(=O)O)c2cc(F)ccc2/C1=C\c1ccc([S+](C)[O-])cc1 (stereo not drawn) [SULINDAC]
Result: 2.76

Query: Data request, read-out pIC50, for COc1ccc2c(c1)c(CC(=O)NCCN(C)C)c(C)n2C(=O)c1ccc2ccccc2c1
Result: 4.54

Query: Data request, read-out pIC50, for CCCCCCNC(=O)CC1=C(C)/C(=C/c2ccc([S+](C)[O-])cc2)c2ccc(F)cc21 (stereo not drawn)
Result: 4.28

Query: Data request, read-out pIC50, for COc1ccc2c(c1)c(CC(=O)NCCN(C)C)c(C)n2C(=O)c1ccc(Br)cc1
Result: 4.87

Query: Data request, read-out pIC50, for CC1=C(CC(=O)NCCC(C)C)c2cc(F)ccc2/C1=C\c1ccc([S+](C)[O-])cc1 (stereo not drawn)
Result: 2.85

Query: Data request, read-out pIC50, for COc1ccc2c(c1)c(CC(=O)NCCN(C)C)c(C)n2C(=O)c1ccc(OC)c(OC)c1
Result: 4.36

Query: Data request, read-out pIC50, for CC1=C(CC(=O)NCCN(C)C)c2cc(F)ccc2/C1=C\c1ccc([S+](C)[O-])cc1 (stereo not drawn)
Result: 4.33

Query: Data request, read-out pIC50, for CC1=C(CC(=O)NCCN2CCCC2)c2cc(F)ccc2/C1=C\c1ccc([S+](C)[O-])cc1 (stereo not drawn)
Result: 4.28

Query: Data request, read-out pIC50, for COc1ccc2c(c1)c(CC(=O)NCCN1CCCC1)c(C)n2C(=O)c1ccc(Cl)cc1
Result: 4.42

Query: Data request, read-out pIC50, for COc1ccc2c(c1)c(CC(=O)O)c(C)n2C(=O)c1ccc(Cl)cc1 [INDOMETHACIN]
Result: 2.98

Query: Data request, read-out pIC50, for COc1ccc2c(c1)c(CC(=O)Nc1ccccc1OC)c(C)n2C(=O)c1ccc(Cl)cc1
Result: 2.95
